B1: Azoarcus group I ribozyme (parent)
chain: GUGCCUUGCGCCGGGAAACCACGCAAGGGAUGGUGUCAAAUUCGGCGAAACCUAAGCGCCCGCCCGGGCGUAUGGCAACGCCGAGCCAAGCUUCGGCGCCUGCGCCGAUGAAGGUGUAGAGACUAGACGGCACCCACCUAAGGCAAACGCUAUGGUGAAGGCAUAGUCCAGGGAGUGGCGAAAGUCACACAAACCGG

# Variants of: B1
# experiment.notes: reverse-splicing fitness (ratio to wild type); higher = more active; in vitro selection; Mg2+ level not given
outcome.measure: reverse-splicing fitness
Note: the reply should be a number with no unit written.

query: Requested read-out: reverse-splicing fitness. Entry: C82U A111C A120U C150A C169U U176A
result: 0.00699

query: Requested read-out: reverse-splicing fitness. Entry: C82U A111U A145G C150U U176A
result: 0.0765

query: Requested read-out: reverse-splicing fitness. Entry: C82G A111U A120C C150G C169G U176C
result: 0.00622

query: Requested read-out: reverse-splicing fitness. Entry: C82A A111C C150G C169G U176G
result: 0.00585

query: Requested read-out: reverse-splicing fitness. Entry: C82A A111U A120U C150A C169U U176G
result: 0.00224

query: Requested read-out: reverse-splicing fitness. Entry: C82A A111G A120C A145C C169A U176A
result: 0.0162

query: Requested read-out: reverse-splicing fitness. Entry: C82U A120G C169G
result: 0.0242

query: Requested read-out: reverse-splicing fitness. Entry: C82A A120C A145C C150G C169U U176A
result: 0.00681

query: Requested read-out: reverse-splicing fitness. Entry: C82U A111C A120U A145C C169G U176A
result: 0.00206

query: Requested read-out: reverse-splicing fitness. Entry: A120C A145C C150G C169A U176A
result: 0.00776

query: Requested read-out: reverse-splicing fitness. Entry: C82G A111U A145C C150U C169A U176A
result: 0.0133

query: Requested read-out: reverse-splicing fitness. Entry: C82U A111U C169U
result: 0.0122

query: Requested read-out: reverse-splicing fitness. Entry: C82A A111U A145G C150A U176A
result: 0.0206

query: Requested read-out: reverse-splicing fitness. Entry: C82U A120C A145C C150A
result: 0.0114

query: Requested read-out: reverse-splicing fitness. Entry: C82A C150U C169A U176G
result: 0.00593

query: Requested read-out: reverse-splicing fitness. Entry: C82G A111U A145C C150U C169U U176G
result: 0.00613

query: Requested read-out: reverse-splicing fitness. Entry: C82A A111C A120G C150A C169A
result: 0.00919

query: Requested read-out: reverse-splicing fitness. Entry: A120C C150G U176A
result: 0.0876

query: Requested read-out: reverse-splicing fitness. Entry: C82G A111U A120C C150A C169G U176G
result: 0.00701

query: Requested read-out: reverse-splicing fitness. Entry: A111C A120G A145U C150A C169G U176A
result: 0.0123

query: Requested read-out: reverse-splicing fitness. Entry: A111G A145G C169U U176A
result: 0.0478

query: Requested read-out: reverse-splicing fitness. Entry: C82U A111G A120U C169G
result: 0.00416

query: Requested read-out: reverse-splicing fitness. Entry: C82U A120G A145C C150G U176G
result: 0.00257

query: Requested read-out: reverse-splicing fitness. Entry: C82G A111C A120C A145C C150G C169U U176C
result: 0.0123

query: Requested read-out: reverse-splicing fitness. Entry: C82U A111G A120C C169G U176G
result: 0.00426

query: Requested read-out: reverse-splicing fitness. Entry: C82G A111U A120U A145C C150U U176G
result: 0.00297

query: Requested read-out: reverse-splicing fitness. Entry: A111G A120C C169U
result: 0.271

query: Requested read-out: reverse-splicing fitness. Entry: C82G A111C A120U A145C C150U U176A
result: 0.00523

query: Requested read-out: reverse-splicing fitness. Entry: C82A A120C A145C C150G U176G
result: 0.00331

query: Requested read-out: reverse-splicing fitness. Entry: C82A A111G A120G C150A C169A U176A
result: 0.0228

query: Requested read-out: reverse-splicing fitness. Entry: C82A A111G A145U C150G C169A U176G
result: 0.00684

query: Requested read-out: reverse-splicing fitness. Entry: C82A A111G A145G C150A C169A U176C
result: 0.0215

query: Requested read-out: reverse-splicing fitness. Entry: C82G A111C C150U
result: 0.143

query: Requested read-out: reverse-splicing fitness. Entry: C82U A111C A120U A145U C169U U176C
result: 0.00255

query: Requested read-out: reverse-splicing fitness. Entry: A111C A145U C150A C169U U176G
result: 0.00751

query: Requested read-out: reverse-splicing fitness. Entry: C82G A111C A120C C150A C169A U176A
result: 0.0164

query: Requested read-out: reverse-splicing fitness. Entry: C82A A111C A120U A145U C150G
result: 0.00626

query: Requested read-out: reverse-splicing fitness. Entry: C82A A111G A120G C169G U176G
result: 0.00458

query: Requested read-out: reverse-splicing fitness. Entry: A111G A120G A145G C169A U176A
result: 0.0489

query: Requested read-out: reverse-splicing fitness. Entry: A111C A120G A145U C150A C169U U176C
result: 0.0173

query: Requested read-out: reverse-splicing fitness. Entry: C82U A111U A120U A145C C150U C169U U176A
result: 0.00211

query: Requested read-out: reverse-splicing fitness. Entry: C82A A111C A120C C169A U176C
result: 0.0179

query: Requested read-out: reverse-splicing fitness. Entry: C82U A111G A120C C150A C169U U176G
result: 0.00561

query: Requested read-out: reverse-splicing fitness. Entry: C82G A145U C150A
result: 0.0405

query: Requested read-out: reverse-splicing fitness. Entry: C82A A111U A120U C150G U176C
result: 0.00606

query: Requested read-out: reverse-splicing fitness. Entry: C82U A111C A120G A145C C150U U176C
result: 0.00988
